meta.source: patent US20230399320A1

- test_target: Cp149 (truncated form of a HBV core protein) (Hepatitis B virus genotype D subtype ayw)
- Construct: Cp149 (amino acids 1-149) is a truncated form of a HBV core protein; histidine tag (cleaved yes); made in house; host or cells: Escherichia coli BL21(DE3)
- test: Protein based assay: immunoblot analysis of in vitro HBV capsid assembly
- Format: biochemical
Reported IC50 by item:

Lookup: Return reported IC50; argument: COc1ncccc1C(=O)NCCNc1cc(Nc2ccc(N3CCOCC3)cc2)nc(SC)n1 [Compound 4a]
Found: 9.8 µM

Lookup: Return reported IC50; argument: COc1ncccc1C(=O)NCCNc1cc(Nc2ccc(N3CCOCC3)cc2)nc([S+](C)[O-])n1 (centres unmarked) [Compound 5a]
Found: 5.3 µM

---

- test_target: Cp149 (truncated form of a HBV core protein) (Hepatitis B virus genotype D subtype ayw, UniProt P03146)
- Construct: Cp149 (amino acids 1-149) is a truncated form of a HBV core protein; histidine tag (cleaved yes); made in house; host or cells: Escherichia coli BL21(DE3)
- Sequence (P03146 1-149): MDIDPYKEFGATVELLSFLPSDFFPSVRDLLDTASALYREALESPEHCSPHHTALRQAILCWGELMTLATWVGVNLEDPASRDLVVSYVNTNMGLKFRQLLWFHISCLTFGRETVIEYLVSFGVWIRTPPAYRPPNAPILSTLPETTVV
- test: Protein based assay: immunoblot analysis of in vitro HBV capsid assembly
- Format: biochemical
- condition_context: read-out: Protein based assay (% inhibition), 1 μM
- Experimental: Cp149 (amino acids 1-149) is a truncated form of a HBV core protein. It was expressed in Escherichia coli, and the expressed protein was purified. The recombinant Cp149 was expressed in E. coli BL21(DE3) cells cultured in LB medium at 37° C. When the culture reached an OD600 of 0.7 to 0.8, expression of the culture was induced with 0.5 mM isopropyl-β-d-thiogalactopyranoside and the culture was cooled to 16° C. […]
result_type: inhibition at 1 µM (%)
Report the figure in % without appending any unit label.

# compound, result_type, recorded_value
data = [
    ("CS(=O)(=O)c1nc(Nc2ccc(F)c(Br)c2)cc(N2CCC(N)CC2)n1 [Compound 26j]", "inhibition at 1 µM", 98),
    ("COc1ncccc1C(=O)NCCNc1cc(Nc2ccc(Cl)cc2)nc([S+](C)[O-])n1 (stereo not shown)", "inhibition at 1 µM", 80),
    ("CS(=O)(=O)c1nc(Nc2ccc(F)c(Br)c2)cc(N2CCNCC2)n1 [Compound 26d]", "inhibition at 1 µM", 98),
]

Lookup: Return reported inhibition at 1 µM; argument: COc1ncccc1C(=O)NCCNc1cc(Nc2ccc(Br)cc2)nc([S+](C)[O-])n1 (stereo not shown)
Found: 82

---

- test_target: Cp149 (truncated form of a HBV core protein) (Hepatitis B virus genotype D subtype ayw, UniProt P03146)
- Construct: Cp149 (amino acids 1-149) is a truncated form of a HBV core protein; histidine tag (cleaved yes); made in house; host or cells: Escherichia coli BL21(DE3)
- test: Protein based assay: immunoblot analysis of in vitro HBV capsid assembly
- Format: biochemical
- condition_context: read-out: Protein based assay (% inhibition), 0.1 μM
Reported inhibition at 0.1 µM by item:
Report the figure in % without appending any unit label.

# compound, result_type, recorded_value
records = [
    ("CS(=O)(=O)c1nc(Nc2ccc(F)c(Cl)c2)cc(NC2CCNCC2)n1 [Compound 26f]", "inhibition at 0.1 µM", 59),
]

Lookup: Return reported inhibition at 0.1 µM; argument: COc1ncccc1C(=O)NCCNc1cc(Nc2ccc(Cl)cc2)nc([S+](C)[O-])n1 (centres unmarked)
Found: 27

Lookup: Return reported inhibition at 0.1 µM; argument: COc1ncccc1C(=O)NCCNc1cc(Nc2ccc(Br)cc2)nc([S+](C)[O-])n1 (centres unmarked)
Found: 27

Lookup: Return reported inhibition at 0.1 µM; argument: CS(=O)(=O)c1nc(Nc2cc(F)c(F)c(F)c2)cc(N2CCNCC2)n1 [Compound 26b]
Found: 39

Lookup: Return reported inhibition at 0.1 µM; argument: CS(=O)(=O)c1nc(Nc2ccc(F)c(Br)c2)cc(N2CCC(N)CC2)n1 [Compound 26j]
Found: 10
